Study system: recombinant human MCHR1-receptors (Homo sapiens)
Construct: expressed in transfected cells
Sequence (Q99705 whole entry): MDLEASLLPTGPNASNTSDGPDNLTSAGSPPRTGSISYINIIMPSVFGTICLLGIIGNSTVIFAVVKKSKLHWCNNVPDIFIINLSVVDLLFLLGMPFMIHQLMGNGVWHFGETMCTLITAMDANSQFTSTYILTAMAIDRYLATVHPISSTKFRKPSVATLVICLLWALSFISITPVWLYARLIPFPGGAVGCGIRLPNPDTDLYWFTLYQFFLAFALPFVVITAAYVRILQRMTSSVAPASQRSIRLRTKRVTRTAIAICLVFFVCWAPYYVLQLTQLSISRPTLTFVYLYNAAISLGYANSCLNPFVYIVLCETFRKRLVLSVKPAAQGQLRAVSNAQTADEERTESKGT
Test protocol: MCHR filter binding assay (competition binding)
Particulars: membranes from CHO-K1 cells expressing human MCHR1; 0.2 nM [Phe13,[125I]Tyr19]-MCH; read-out: IC50 (nM), in vitro activity (binding assay)
Counter-ions that a name gives are not always drawn.
Measurement type: IC50

Compound: Cc1ccc2c(c1)nc(Cl)n2C1CCN(C[C@@H]2Cc3ccc(N)cc3C2)CC1 [Example 31, dihydrochloride]
Study system: recombinant human MCHR1-receptors (Homo sapiens)
Measurement type: IC50
Result: 200 to 5000 nM

Next:
query: Query (compound): CCCC(=O)Nc1ccc2c(c1)C[C@H](CN1CC[C@H](n3c(C4CC4)nc4cc(C)ccc43)[C@@H](OC)C1)C2 ; field requested: IC50
result: < 20 nM
